Data provenance: PubChem BioAssay AID1963844

System: 422866-222-R5-J1-PDC complex spheroid viability;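 further: spheroids exposed to compounds for one week before readout; percent of DMSO vehicle wells luminescence so 100% = untreated viability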
ASSAY_NAME: Anticancer human tumor 422866-222-R5-J1-PDC patient-derived pancreatic adenocarcinoma cell line growth inhibition [POLQ]
TEST_SETTINGS: second compound 0.0316 µM; first compound 1 µM; stronger effect = lower value
For each record, write down the corresponding viability, T/C.
Answers are plain numbers, in %.

Items follow; give viability, T/C for each.
1. COc1cccc(OCCCN)c1-c1cc(Nc2cnc(C#N)cn2)n[nH]1 + Cc1cccc(N(C)C(=O)C2C(O)CCN2c2nc(C)cc(C(F)(F)F)c2C#N)c1
2. O=c1[nH]cc(F)c(=O)[nH]1 + Cc1cccc(N(C)C(=O)C2C(O)CCN2c2nc(C)cc(C(F)(F)F)c2C#N)c1
3. C#Cc1c(F)ccc2cc(O)cc(-c3ncc4c(N5CC6CCC(C5)N6)nc(OCC56CCCN5CC(F)C6)nc4c3F)c12 (stereo not drawn) + COC1C(OC(N)=O)C(O)C(Oc2ccc3c(O)c(NC(=O)c4ccc(O)c(CC=C(C)C)c4)c(=O)oc3c2C)OC1(C)C

[43.4, 88.2, 46.2]
